systemTested: histamine H2 -receptor (Cavia porcellus, UniProt P47747)
Construct: a spontaneously beating isolated portion of the guinea pig right atrium; from tissue; host or cells: guinea pig right atrium
Sequence (P47747 whole entry): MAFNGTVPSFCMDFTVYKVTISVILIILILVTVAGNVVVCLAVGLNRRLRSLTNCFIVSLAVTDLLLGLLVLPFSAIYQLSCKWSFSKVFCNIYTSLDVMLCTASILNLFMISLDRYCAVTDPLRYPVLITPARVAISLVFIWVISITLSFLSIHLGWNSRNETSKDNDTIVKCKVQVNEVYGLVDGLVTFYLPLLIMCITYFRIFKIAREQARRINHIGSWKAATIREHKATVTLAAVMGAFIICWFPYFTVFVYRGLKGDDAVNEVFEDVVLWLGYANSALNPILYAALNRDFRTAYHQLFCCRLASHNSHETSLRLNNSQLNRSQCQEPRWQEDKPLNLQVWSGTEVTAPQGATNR
assayProcedure: Inhibition of histamine-induced tachycardia in the isolated guinea-pig right atrium
Assay type: cell-based
runParameters: isolated guinea pig right atrium, 37° C., 60 min contact, histamine agonist; read-out: pA2 (converted)
measureName: Kb (µM)

{"inputSmiles": "c1cc(CN2CCCCC2)cc(OCCCNc2ncnc3ccccc23)c1", "unitsLabel": "µM", "Kb": 0.02}
{"inputSmiles": "Cc1nc(NCCCOc2cccc(CN3CCCCC3)c2)sc1C", "unitsLabel": "µM", "Kb": 2.51}
{"inputSmiles": "c1cc(CN2CCCCC2)cc(OCCCCNc2nc3ccccc3s2)c1", "unitsLabel": "µM", "Kb": 0.126}
{"inputSmiles": "c1cc(CN2CCCCC2)cc(OCCCNc2ccc3ccccc3n2)c1", "unitsLabel": "µM", "Kb": 0.631}

a. CCOc1cc(NCCCOc2cccc(CN3CCCCC3)c2)nc2ccccc12
b. c1cc(CN2CCCCC2)cc(OCCCNc2nc3ccccc3[nH]2)c1
c. c1cc(CN2CCCCC2)cc(OCCc2nc3ccccc3[nH]2)c1
d. c1cc(CN2CCCCC2)cc(OCCNc2nc3ccccc3s2)c1
e. c1cc(CN2CCCCC2)cc(OCCCNc2nccc3ccccc23)c1
Prompt line: Reorder the items by Kb, least to greatest. Put the labels in the requested order and list them out.
Response line: b, e, a, d, c
